System Under Test: T1, HER2-ECD-His protein (human, UniProt P04626 23-652)
T1 construct: extracellular domain; not shown: His tag
Run Description: SPR (Biacore 3000), HER2-ECD-His amine-coupled to CM5, periplasmic extract as analyte
Measurement Type: Degree of reduction (Fold) of koff against hz1E11 (fold)
Kindly provide the numeric value in fold only, without the unit symbol.

Examples with answers:
• M1-LH-A3-3-1A6 (antibody, name in Kabat numbering, V domains shown, hz1E11 library clone, periplasmic extract) VH: EVQLVESGGGLVQPGGSLRLSCAASGFTFSSYTMSWVRQAPGKGLEWVAYISNGGGSTYYPDTVKGRFTISRDNAKNSLYLQMNSLRAEDTAVYYCARNYGGTASFDYWGQGTLVTVSS VL: DIQMTQSPSSLSASVGDRVTITCLASQTIGTWLAWYQQKPGKAPKLLIYVATSLADGVPSRFSGSGSGTDFTLTISSLQPEDFATYYCQQLVRTPWTFGQGTKVEIK = 5.8
• M3-L-A1-3-1F11 (hz1E11-154), periplasmic extract (antibody, V domains shown, Library clone expressed in bacteria with IPTG, tested as periplasmic extract; LCDR3 QQTAFSPWT) VH: EVQLVESGGGLVQPGGSLRLSCAASGFTFSSYTMSWVRQAPGKGLEWVAYISNGGGSTYYPDTVKGRFTISRDNAKNSLYLQMNSLRAEDTAVYYCARHLGGTASFDYWGQGTLVTVSS VL: DIQMTQSPSSLSASVGDRVTITCLASQTIGTWLAWYQQKPGKAPKLLIYVATSLADGVPSRFSGSGSGTDFTLTISSLQPEDFATYYCQQTAFSPWTFGQGTKVEIK = 9.7
• M3-L-A3-4-2E8 (antibody, V domains shown, hz1E11 library clone, periplasmic extract) VH: EVQLVESGGGLVQPGGSLRLSCAASGFTFSSYTMSWVRQAPGKGLEWVAYISNGGGSTYYPDTVKGRFTISRDNAKNSLYLQMNSLRAEDTAVYYCARHLGGTASFDYWGQGTLVTVSS VL: DIQMTQSPSSLSASVGDRVTITCLASQTIGTWLAWYQQKPGKAPKLLIYVATSLADGVPSRFSGSGSGTDFTLTISSLQPEDFATYYCQQIAYVPWTFGQGTKVEIK = 5.9
• M3-LH-A3-3-2A5 (antibody, name in Kabat numbering, V domains shown, hz1E11 library clone, periplasmic extract) VH: EVQLVESGGGLVQPGGSLRLSCAASGFTFSSYTMSWVRQAPGKGLEWVAYISNGGGSTYYPDTVKGRFTISRDNAKNSLYLQMNSLRAEDTAVYYCARHWGGTASFDYWGQGTLVTVSS VL: DIQMTQSPSSLSASVGDRVTITCLASQTIGTWLAWYQQKPGKAPKLLIYVATSLADGVPSRFSGSGSGTDFTLTISSLQPEDFATYYCQQMFSTPWTFGQGTKVEIK = 3.6

Now take the following binder into account.
The recorded Degree of reduction (Fold) of koff against hz1E11 for M3-LH-A1-1-1H1 (antibody, name in Kabat numbering, V domains shown, hz1E11 library clone, periplasmic extract) VH: EVQLVESGGGLVQPGGSLRLSCAASGFTFSSYTMSWVRQAPGKGLEWVAYISNGGGSTYYPDTVKGRFTISRDNAKNSLYLQMNSLRAEDTAVYYCARNYGGTASFDYWGQGTLVTVSS VL: DIQMTQSPSSLSASVGDRVTITCLASQTIGTWLAWYQQKPGKAPKLLIYVATSLADGVPSRFSGSGSGTDFTLTISSLQPEDFATYYCQQNFIAPWTFGQGTKVEIK is 0.7
